- System: Geobacillus caldoxylosilyticus GcL (SEQ ID NO: 1) variant GcL 4 (C147S/H178D/L183E/M244A)
- assay_details: Lactonase assay of variant GcL 4
- Format: biochemical
- condition_parameters: GcL 4, Table 6
property_measured: Km (µM)
Unit µM implied. Number only.

Would you please look over these solved cases?
compound	unit_info	Km
O=C1CCCCCO1 [ε-Caprolactone]	µM	1.3
O=C1CCCO1 [γ-Butyrolactone]	µM	1.99
CCCCCC1CCC(=O)O1 (centres unmarked) [γ-Nonalactone]	µM	2.54
CCCCC1CCCCC(=O)O1 (centres unmarked) [ε-Decalactone]	µM	1.41
CCCCCC(=O)CC(=O)N[C@H]1CCOC1=O [3-oxo-C8-AHL]	µM	1.09
CCCC(=O)N[C@H]1CCOC1=O [C4-AHL]	µM	0.75

Then this compound:
The reported value for O=C1CCCCO1 [δ-Valerolactone] in terms of Km is 3.13

====

- Tested on: Geobacillus caldoxylosilyticus GcL (SEQ ID NO: 1) variant GcL 4 (C147S/H178D/L183E/M244A)
- assay_details: Lactonase assay of variant GcL 4
- Format: biochemical
- condition_parameters: GcL 4, Table 6
property_measured: kcat (s⁻¹)
Unit s⁻¹ implied. Number only.

compound	unit_info	value
O=C1CCCCO1 [δ-Valerolactone]	s⁻¹	11.94
CCCC(=O)N[C@H]1CCOC1=O [C4-AHL]	s⁻¹	18.25
CCCC1CCCC(=O)O1 (stereo not shown) [δ-Octanolactone]	s⁻¹	22.01

Then this compound:
The reported value for CCCCC1CCCCC(=O)O1 (stereo not shown) [ε-Decalactone] in terms of kcat is 6.3

====

Each entry below carries its reported Km.
- Test system: Geobacillus caldoxylosilyticus GcL (SEQ ID NO: 1) variant GcL 4 (C147S/H178D/L183E/M244A)
- assay_details: Lactonase assay of variant GcL 4
- Format: biochemical
- condition_parameters: GcL 4, Table 6
Quote the value and follow it with the unit of measurement.

compound	Km
CCCCCCCC(=O)N[C@H]1CCOC1=O [C8-AHL]	0.81 µM
CCCCCCC1CCC(=O)O1 (stereo not shown) [γ-Decanolactone]	1.31 µM
CCCCCC1CCCC(=O)O1 (stereo not shown) [δ-Decalactone]	5.54 µM

The reported value for CCCC1CCCC(=O)O1 (stereo not shown) [δ-Octanolactone] in terms of Km is 1.92 µM
